Listing of entries alongside the reported GI50.
Tested on: HT-29
ASSAY_PROCEDURE: NCI tumour cell line growth inhibition, 48 h
Calls of active or inactive are those of the source. Rule as the data show it: active = GI50 up to about 1.1 µM and inactive = higher.

The following molecules have reported results that may help.
-- ask What does the record list as GI50 for CCOc1ccc2nc(NC(=O)c3c/c(=N\NC(=O)C[N+](C)(C)C)c4ccc(O)cc4o3)sc2c1 ?
-- reply 3.56 µM (inactive)

-- ask If you can, please state the reported GI50 value of CC1=C(C)C(=O)C(C2=C(C3=CC(=O)C(C)=C(C)C3=O)C(=O)c3ccccc3C2=O)=CC1=O .
-- reply 2.2 µM (inactive)

-- ask # input molecule: CCCCC(C)(C/C=C/[C@@H]1[C@@H](C(O)CCCCCC(=O)OC)C(=O)C[C@H]1O[Si](C)(C)C(C)(C)C)O[Si](C)(C)C (some centres undefined) ; wanted: its GI50
-- reply 78.5 µM (inactive)

-- ask Which GI50 value belongs to Nc1ccn(CC(O)c2cc3ccccc3[nH]2)c(=O)n1 (centres undefined) ?
-- reply > 100 µM (inactive)

-- ask What does the record list as GI50 for COc1cc2c3cc1Oc1cc(ccc1O)C[C@@H]1c4c(cc(OC)c(O)c4Oc4ccc(cc4)C[C@@H]3N(C)CC2)CC[N+]1(C)C ?
-- reply 46.5 µM (inactive)

-- ask Give its GI50 value. Item: O=C1C=CC(=O)C(CNc2ccc(C(=O)OCc3ccccc3)cc2)=C1
-- reply 15.2 µM (inactive)

***
-- ask Fill in: GI50 of Cn1cnc([N+](=O)[O-])c1Sc1nncc2[nH]cnc12 is ___
-- reply > 100 µM (inactive)

-- ask Report GI50 for CCc1cn(C2CC(CO)C(CO)S2)c(=O)[nH]c1=O (centres undefined) please.
-- reply > 100 µM (inactive)

-- ask Give its GI50 value. Item: CC(C)(C)c1cc([N+](=O)[O-])cc([N+](=O)[O-])c1O [DINOTERB]
-- reply > 10 µM (inactive)
